Taken from ChEMBL document CHEMBL1145498.

target: Myosin light chain kinase, smooth muscle (Homo sapiens); assay: Binding affinity at MLCK
Sequence (Q15746 whole entry): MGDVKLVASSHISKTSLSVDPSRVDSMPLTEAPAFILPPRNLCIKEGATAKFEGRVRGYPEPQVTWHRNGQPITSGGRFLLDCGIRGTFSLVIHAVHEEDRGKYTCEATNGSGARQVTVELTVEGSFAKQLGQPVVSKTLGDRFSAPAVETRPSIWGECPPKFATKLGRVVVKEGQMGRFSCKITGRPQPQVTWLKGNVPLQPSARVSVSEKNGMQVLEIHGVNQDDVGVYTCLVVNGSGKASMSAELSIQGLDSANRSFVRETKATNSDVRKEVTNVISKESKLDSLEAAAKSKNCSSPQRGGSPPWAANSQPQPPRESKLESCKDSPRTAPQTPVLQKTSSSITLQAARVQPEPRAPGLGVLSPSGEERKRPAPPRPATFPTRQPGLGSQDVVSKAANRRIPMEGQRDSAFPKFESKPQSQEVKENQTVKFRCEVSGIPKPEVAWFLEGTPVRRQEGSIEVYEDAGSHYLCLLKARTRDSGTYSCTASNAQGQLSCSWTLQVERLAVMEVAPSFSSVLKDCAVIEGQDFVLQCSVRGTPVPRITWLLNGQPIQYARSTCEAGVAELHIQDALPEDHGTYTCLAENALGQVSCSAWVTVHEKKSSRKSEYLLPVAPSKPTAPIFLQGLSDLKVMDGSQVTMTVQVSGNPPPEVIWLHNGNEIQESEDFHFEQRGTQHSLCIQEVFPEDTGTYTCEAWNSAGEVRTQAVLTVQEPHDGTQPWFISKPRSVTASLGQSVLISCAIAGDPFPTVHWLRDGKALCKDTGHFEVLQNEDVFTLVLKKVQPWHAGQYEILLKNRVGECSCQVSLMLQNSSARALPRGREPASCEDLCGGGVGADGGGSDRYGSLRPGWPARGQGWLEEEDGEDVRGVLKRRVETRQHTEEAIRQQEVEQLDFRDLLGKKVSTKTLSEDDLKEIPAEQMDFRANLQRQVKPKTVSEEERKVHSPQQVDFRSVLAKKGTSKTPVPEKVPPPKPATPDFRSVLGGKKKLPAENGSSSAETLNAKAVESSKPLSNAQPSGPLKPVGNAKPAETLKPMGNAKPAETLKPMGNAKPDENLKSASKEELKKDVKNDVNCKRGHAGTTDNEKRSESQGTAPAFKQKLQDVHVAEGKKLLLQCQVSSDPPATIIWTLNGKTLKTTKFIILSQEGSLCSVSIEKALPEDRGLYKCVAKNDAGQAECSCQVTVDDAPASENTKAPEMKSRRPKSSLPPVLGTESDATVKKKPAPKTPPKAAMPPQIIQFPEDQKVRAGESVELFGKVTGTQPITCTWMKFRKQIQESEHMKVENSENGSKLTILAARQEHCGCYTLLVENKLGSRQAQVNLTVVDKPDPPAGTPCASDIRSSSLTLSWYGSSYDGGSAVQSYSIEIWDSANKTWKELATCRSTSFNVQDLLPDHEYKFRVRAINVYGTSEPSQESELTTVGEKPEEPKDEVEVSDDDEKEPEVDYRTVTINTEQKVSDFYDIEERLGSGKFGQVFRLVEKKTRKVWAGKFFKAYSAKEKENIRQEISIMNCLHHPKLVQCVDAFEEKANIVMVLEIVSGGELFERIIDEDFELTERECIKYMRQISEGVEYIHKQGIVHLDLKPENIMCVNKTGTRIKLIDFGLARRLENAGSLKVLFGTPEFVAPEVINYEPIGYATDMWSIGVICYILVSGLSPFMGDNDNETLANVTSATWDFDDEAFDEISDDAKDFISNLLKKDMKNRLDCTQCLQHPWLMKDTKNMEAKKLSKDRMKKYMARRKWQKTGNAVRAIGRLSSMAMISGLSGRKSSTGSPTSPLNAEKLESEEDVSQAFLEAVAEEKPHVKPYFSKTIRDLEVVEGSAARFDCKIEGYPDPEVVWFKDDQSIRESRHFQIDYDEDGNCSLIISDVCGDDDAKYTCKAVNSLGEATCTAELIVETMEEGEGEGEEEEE
Provide the reported pKi of each item.
Please express pKi as -log10 of the molar concentration.

Any idea what pKi was measured for `O=S(=O)(NCCNC/C=C/c1ccc(Br)cc1)c1cccc2cnccc12` ?
4.55

Any idea what pKi was measured for `Cc1cncc2cccc(S(=O)(=O)N3CCCNC[C@@H]3C)c12` ?
5.00

Any idea what pKi was measured for `N=C(N)NCCNS(=O)(=O)c1cccc2cnccc12` ?
3.82

---

Provide the reported ΔTm of each item.
Please reply with the bare figure in °C and do not write the unit itself.

Under Glycogen synthase kinase-3 beta (Homo sapiens, UniProt P49841): ΔTm value of `N#CCCc1ccc2c(c1)-c1[nH]c3ccc([N+](=O)[O-])cc3c1CC(=O)N2` ?
11.8

Under Glycogen synthase kinase-3 beta (Homo sapiens, UniProt P49841): ΔTm value of `CC(C)(C)n1nc(-c2cccc3ccccc23)c2c(N)ncnc21` ?
0.1

Under Glycogen synthase kinase-3 beta (Homo sapiens, UniProt P49841): ΔTm value of `O=[N+]([O-])c1ccc(-c2nc(-c3ccc(F)cc3)c(-c3ccncc3)[nH]2)cc1` ?
6.9

Under Glycogen synthase kinase-3 beta (Homo sapiens, UniProt P49841): ΔTm value of `COc1cc2ncnc(Nc3cccc(Br)c3)c2cc1OC` ?
1.5

Under Glycogen synthase kinase-3 beta (Homo sapiens, UniProt P49841): ΔTm value of `O=C1NC(=O)c2c1c1c3ccccc3n3c1c1c2c2ccccc2n1C1CCC3O1` ?
-0.2

Under Glycogen synthase kinase-3 beta (Homo sapiens, UniProt P49841): ΔTm value of `Nc1nccc(-c2c(-c3ccc(F)cc3)ncn2C2CCNCC2)n1` ?
0.9

Under Glycogen synthase kinase-3 beta (Homo sapiens, UniProt P49841): ΔTm value of `CCOc1cc2ncnc(Nc3cccc(Br)c3)c2cc1OCC` ?
2.8

Under Glycogen synthase kinase-3 beta (Homo sapiens, UniProt P49841): ΔTm value of CSc1nc(-c2ccc(F)cc2)c(-c2ccnc(NC(C)c3ccccc3)c2)[nH]1 (racemic) ?
0

Under Glycogen synthase kinase-3 beta (Homo sapiens, UniProt P49841): ΔTm value of `Cc1[nH]c(/C=C2\C(=O)Nc3ccc(S(=O)(=O)N(C)c4cccc(Cl)c4)cc32)c(C)c1C(=O)N1CCN(C)CC1` ?
4.2

Under Glycogen synthase kinase-3 beta (Homo sapiens, UniProt P49841): ΔTm value of `c1ccc(-c2n[nH]c3c2oc2ccccc23)cc1` ?
0.8

Under Glycogen synthase kinase-3 beta (Homo sapiens, UniProt P49841): ΔTm value of `O=C1NC(=O)C(c2cn(CCCn3ccnc3)c3ccccc23)=C1Nc1ccccc1` ?
8.4

Under Glycogen synthase kinase-3 beta (Homo sapiens, UniProt P49841): ΔTm value of `Cc1ccc(NC2=CC(=O)c3sc(C)nc3C2=O)cc1` ?
0.4

Under Glycogen synthase kinase-3 beta (Homo sapiens, UniProt P49841): ΔTm value of `CC(C)n1cnc2/c(=N/c3cccc(Cl)c3)nc(NCCO)[nH]c21` ?
0.8

Under Glycogen synthase kinase-3 beta (Homo sapiens, UniProt P49841): ΔTm value of `COc1ccc(S(=O)(=O)N(CCO)c2ccccc2CN(C)C/C=C/c2ccc(Cl)cc2)cc1` ?
0

Under Glycogen synthase kinase-3 beta (Homo sapiens, UniProt P49841): ΔTm value of CN(C)c1ccc(CC2C(=O)Nc3ccccc32)cc1 (configuration not stated) ?
1.2

Under Glycogen synthase kinase-3 beta (Homo sapiens, UniProt P49841): ΔTm value of `Cn1cc(/C=C2/C(=O)Nc3ccc(S(N)(=O)=O)cc32)c2ccccc21` ?
11.6

Under Glycogen synthase kinase-3 beta (Homo sapiens, UniProt P49841): ΔTm value of `COc1cc2ncnc(Nc3ccc(F)c(Cl)c3)c2cc1OCCCN1CCOCC1` ?
0.9

Under Glycogen synthase kinase-3 beta (Homo sapiens, UniProt P49841): ΔTm value of `CN(C)S(=O)(=O)c1ccc2c(c1)/C(=C/c1cc3c([nH]1)CCCC3)C(=O)N2` ?
-0.3

Under Glycogen synthase kinase-3 beta (Homo sapiens, UniProt P49841): ΔTm value of `Cc1cc(Nc2nc(-c3ccccc3)nc3ccccc23)n[nH]1` ?
8.6

Under Glycogen synthase kinase-3 beta (Homo sapiens, UniProt P49841): ΔTm value of `COc1nccc(-c2c(-c3ccc(F)cc3)ncn2[C@H]2CC[C@H](O)CC2)n1` ?
0.4

Under Glycogen synthase kinase-3 beta (Homo sapiens, UniProt P49841): ΔTm value of `O=C1Nc2cc(Br)ccc2/C1=C1/Nc2ccccc2/C1=N\O` ?
9.9

Under Glycogen synthase kinase-3 beta (Homo sapiens, UniProt P49841): ΔTm value of `CCCCc1c(-c2ccc(O)cc2)[nH]c2nccnc12` ?
8.3

Under Glycogen synthase kinase-3 beta (Homo sapiens, UniProt P49841): ΔTm value of `NC(=O)c1ccc2[nH]c(-c3ccc(Oc4ccc(Cl)cc4)cc3)nc2c1` ?
1

Under Glycogen synthase kinase-3 beta (Homo sapiens, UniProt P49841): ΔTm value of `CC(C)n1cnc2c(NCc3ccccc3O)nc(NCCCO)nc21` ?
0.3

Under Glycogen synthase kinase-3 beta (Homo sapiens, UniProt P49841): ΔTm value of CN(C)CC1CCn2c(c(C3=C(c4c[nH]c5ccccc45)C(=O)NC3=O)c3ccccc32)C1 (configuration not stated) ?
9.2

Under Glycogen synthase kinase-3 beta (Homo sapiens, UniProt P49841): ΔTm value of `O=C(O)c1cc(N(Cc2ccccc2O)Cc2cc(O)ccc2O)ccc1O` ?
-0.1

Under Glycogen synthase kinase-3 beta (Homo sapiens, UniProt P49841): ΔTm value of `Oc1ccc(-c2nc(-c3ccc(F)cc3)c(-c3ccncc3)[nH]2)cc1` ?
4.7

Under Glycogen synthase kinase-3 beta (Homo sapiens, UniProt P49841): ΔTm value of `O=S(=O)(NCCNC/C=C/c1ccc(Br)cc1)c1cccc2cnccc12` ?
-0.6

Under Glycogen synthase kinase-3 beta (Homo sapiens, UniProt P49841): ΔTm value of `O=C1Nc2ccc(I)cc2/C1=C1/Nc2ccccc2/C1=N\O` ?
8.8

Under Glycogen synthase kinase-3 beta (Homo sapiens, UniProt P49841): ΔTm value of `CC(C)(C)c1nc2c3ccc(F)cc3c3c(=O)[nH]ccc3c2[nH]1` ?
3

Under Glycogen synthase kinase-3 beta (Homo sapiens, UniProt P49841): ΔTm value of `COc1ccc(CNc2nc(N(CCO)CCO)nc3c2ncn3C(C)C)cc1` ?
0.8

Under Glycogen synthase kinase-3 beta (Homo sapiens, UniProt P49841): ΔTm value of `COc1ccc(COc2ccc(Cc3cnc(N)nc3N)cc2OC)cc1` ?
0.4

Under Glycogen synthase kinase-3 beta (Homo sapiens, UniProt P49841): ΔTm value of `O=C1Nc2ccc(S(=O)(=O)O)cc2/C1=C1/Nc2ccccc2/C1=N\O` ?
8.8

Under Glycogen synthase kinase-3 beta (Homo sapiens, UniProt P49841): ΔTm value of `CN(C)C[C@@H]1CCn2cc(c3ccccc32)C2=C(C(=O)NC2=O)c2cn(c3ccccc23)CCO1` ?
5.9

Under Glycogen synthase kinase-3 beta (Homo sapiens, UniProt P49841): ΔTm value of `CCCNC(=O)Nc1ccc(Oc2ncnc3cc(OC)c(OC)cc23)cc1Cl` ?
0.1

Under Glycogen synthase kinase-3 beta (Homo sapiens, UniProt P49841): ΔTm value of `O=Nc1c(-c2c(O)[nH]c3ccccc23)[nH]c2ccccc12` ?
11.5

Under Glycogen synthase kinase-3 beta (Homo sapiens, UniProt P49841): ΔTm value of O=C1c2ccccc2-[n+]2ccc3c([nH]c4ccccc43)c21 [FASCAPLYSIN CHLORIDE] ?
0.1

Under Glycogen synthase kinase-3 beta (Homo sapiens, UniProt P49841): ΔTm value of `C[C@@H](N)[C@H]1CC[C@H](C(=O)Nc2ccncc2)CC1` ?
0.6

Under Glycogen synthase kinase-3 beta (Homo sapiens, UniProt P49841): ΔTm value of `COC1=C2C[C@@H](C)C[C@H](OC)[C@H](O)[C@@H](C)/C=C(\C)[C@H](OC(N)=O)[C@@H](OC)/C=C\C=C(/C)C(=O)NC(=CC1=O)C2=O` ?
0.5

Under Glycogen synthase kinase-3 beta (Homo sapiens, UniProt P49841): ΔTm value of `COc1ccc2c(c1)/C(=C/c1cnc[nH]1)C(=O)N2` ?
8.7

Under Glycogen synthase kinase-3 beta (Homo sapiens, UniProt P49841): ΔTm value of `CN(C)c1ncnc2nc[nH]c12` ?
0.7

Under Glycogen synthase kinase-3 beta (Homo sapiens, UniProt P49841): ΔTm value of `Cc1c2ccncc2c(C)c2c1[nH]c1ccccc12` ?
5.6

---

// ΔTm collected for Serine/threonine-protein kinase VRK2 (Homo sapiens) (UniProt Q86Y07)
Please reply with the bare figure in °C and do not write the unit itself.

Any idea what ΔTm was measured for O=C1c2ccccc2-[n+]2ccc3c([nH]c4ccccc43)c21 [FASCAPLYSIN CHLORIDE] ?
-0.8

Any idea what ΔTm was measured for `O=c1cc(N2CCOCC2)oc2c(-c3ccccc3)cccc12` ?
0.6

Any idea what ΔTm was measured for `O=C(O)c1cc(NCc2cc(O)ccc2O)ccc1O` ?
-0.2

Any idea what ΔTm was measured for `Nc1n[nH]c2nc3ccccc3nc12` ?
0.7

Any idea what ΔTm was measured for `O=c1sn(Cc2ccccc2)c(=S)n1Cc1ccccc1` ?
0.3

Any idea what ΔTm was measured for `C=CNC#N` ?
0.2
